Target: CDK7/cyclinH/MAT1 trimeric complex (Homo sapiens, UniProt P50613)
Sequence (P50613 whole entry): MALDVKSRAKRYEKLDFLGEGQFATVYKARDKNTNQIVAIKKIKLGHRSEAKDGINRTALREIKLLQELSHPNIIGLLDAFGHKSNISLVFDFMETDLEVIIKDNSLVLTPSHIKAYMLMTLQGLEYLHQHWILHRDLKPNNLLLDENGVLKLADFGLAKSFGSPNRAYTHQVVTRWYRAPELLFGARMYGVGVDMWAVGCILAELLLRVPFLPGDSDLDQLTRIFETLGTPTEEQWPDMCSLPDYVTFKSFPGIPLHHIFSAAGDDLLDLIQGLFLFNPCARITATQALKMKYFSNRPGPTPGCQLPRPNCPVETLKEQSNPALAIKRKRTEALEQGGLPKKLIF
Sequence (P51946 whole entry partner): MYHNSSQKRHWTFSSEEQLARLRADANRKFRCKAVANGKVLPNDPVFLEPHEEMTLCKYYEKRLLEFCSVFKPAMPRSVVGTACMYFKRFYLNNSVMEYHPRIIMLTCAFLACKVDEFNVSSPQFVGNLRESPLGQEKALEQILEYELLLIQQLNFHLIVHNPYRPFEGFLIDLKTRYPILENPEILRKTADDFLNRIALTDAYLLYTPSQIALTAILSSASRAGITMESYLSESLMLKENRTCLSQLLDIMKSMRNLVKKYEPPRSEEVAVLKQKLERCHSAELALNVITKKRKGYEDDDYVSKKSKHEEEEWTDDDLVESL
Sequence (P51948 whole entry partner): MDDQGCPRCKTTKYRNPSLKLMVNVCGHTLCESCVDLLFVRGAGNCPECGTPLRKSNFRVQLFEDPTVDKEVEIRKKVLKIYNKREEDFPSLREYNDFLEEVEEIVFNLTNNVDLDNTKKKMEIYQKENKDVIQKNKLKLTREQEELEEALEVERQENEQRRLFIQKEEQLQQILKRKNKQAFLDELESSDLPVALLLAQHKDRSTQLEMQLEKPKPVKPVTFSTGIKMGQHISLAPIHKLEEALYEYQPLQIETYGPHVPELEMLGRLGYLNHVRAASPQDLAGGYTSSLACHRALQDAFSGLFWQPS
Test: In vitro CDK7 assay, potency of irreversible covalent inhibitors (kinact/KI), coupled PK/LDH ADP readout at 340 nm
Conditions: read-out: CDK7 (kinact/KI, M^−1*s^−1), potency of irreversible covalent inhibitors; 1 mM ATP, room temperature; averaged values over all measurements
Here the recorded log10 of kinact/KI is given for each entry.
readout.name: log10 of kinact/KI (log10 of the value in M⁻¹ s⁻¹)

| compound | target.system | log10 of kinact/KI |
| --- | --- | --- |
| C=CC(=O)N1CC(N2CCC(c3ccc4c(c3)Nc3nccc(N5CC=C(CCO)CC5)c3CO4)CC2)C1 [Compound 12] | CDK7/cyclinH/MAT1 trimeric complex (Homo sapiens, UniProt P50613) | 2.47 |
| C=CC(=O)N1CC(N2CCCC(c3ccc4c(c3)Nc3nccc(N5CCOCC5)c3CO4)CC2)C1 (centres unmarked) [Compound 42] | CDK7/cyclinH/MAT1 trimeric complex (Homo sapiens, UniProt P50613) | 2.88 |
| C=CC(=O)N1CC[C@H]2CN(c3ccc4c(c3)Nc3nccc(N5CCOCC5)c3CO4)CC[C@@H]21 (racemic) [Compound 48] | CDK7/cyclinH/MAT1 trimeric complex (Homo sapiens, UniProt P50613) | 2.18 |
| C=CC(=O)N1CC(N2CCC(c3ccc4c(c3)Nc3nccc(-c5cnc6[nH]ccc6c5)c3CO4)CC2)C1 [Compound 31] | CDK7/cyclinH/MAT1 trimeric complex (Homo sapiens, UniProt P50613) | 2.80 |
| CC#CC(=O)N1CC(N2CCC(c3ccc4c(c3)Nc3nccc(N5CCOCC5)c3CO4)CC2)C1 [Compound 50] | CDK7/cyclinH/MAT1 trimeric complex (Homo sapiens, UniProt P50613) | 3.04 |
| C=CC(=O)N1CC(N2CCC(c3ccc4c(c3)Nc3ncc(C)c(N5CCOCC5)c3CO4)CC2)C1 [Compound 37] | CDK7/cyclinH/MAT1 trimeric complex (Homo sapiens, UniProt P50613) | 2.93 |
| C=CC(=O)N1CC(N2CCC(c3ccc4c(c3)Nc3ncc(C#N)c(N5CCOCC5)c3CO4)CC2)C1 [Compound 45] | CDK7/cyclinH/MAT1 trimeric complex (Homo sapiens, UniProt P50613) | 3.05 |
| C=CC(=O)N1CC(N2CCC(c3ccc4c(c3)Nc3nccc(N5CCCOCC5)c3CO4)CC2)C1 [Compound 53] | CDK7/cyclinH/MAT1 trimeric complex (Homo sapiens, UniProt P50613) | 2.89 |
| C=CC(=O)N1CC(c2cc(-c3ccc4c(c3)Nc3nccc(N5CCOCC5)c3CO4)ccn2)C1 [Compound 58] | CDK7/cyclinH/MAT1 trimeric complex (Homo sapiens, UniProt P50613) | 2.71 |
| C#CCOc1cc(C(=O)Nc2ccc3c(c2)Nc2nccc(C4CCOCC4)c2CO3)ccc1NC(=O)C=C [Compound 8] | CDK7/cyclinH/MAT1 trimeric complex (Homo sapiens, UniProt P50613) | 3.18 |
| C=CC(=O)N1CC(N2CCC(c3ccc4c(c3)Nc3nccc(N5CCC6(CCO6)CC5)c3CO4)CC2)C1 [Compound 46] | CDK7/cyclinH/MAT1 trimeric complex (Homo sapiens, UniProt P50613) | 2.66 |
| C=CC(=O)N1CC(N2[C@@H]3CC[C@H]2C[C@@H](c2ccc4c(c2)Nc2nccc(N5CCOCC5)c2CO4)C3)C1 [Compound 49] | CDK7/cyclinH/MAT1 trimeric complex (Homo sapiens, UniProt P50613) | 3.00 |
| C=CC(=O)N1CC[C@H](N2CCC(c3ccc4c(c3)Nc3nccc(N5CCOCC5)c3CO4)CC2)C1 (single isomer, unassigned) [Compound 38] | CDK7/cyclinH/MAT1 trimeric complex (Homo sapiens, UniProt P50613) | 2.87 |
| C=CC(=O)Nc1ccc(C(=O)Nc2ccc3c(c2)Nc2nccc(C4CCOCC4)c2CO3)cc1 [Compound 1] | CDK7/cyclinH/MAT1 trimeric complex (Homo sapiens, UniProt P50613) | 3.31 |
| C=CC(=O)Nc1cc(-c2ccc3c(c2)Nc2nccc(N4CCOCC4)c2CO3)ccn1 [Compound 24] | CDK7/cyclinH/MAT1 trimeric complex (Homo sapiens, UniProt P50613) | 1.33 |
| C=CC(=O)N1CC(N2CCC(c3ccc4c(c3)Nc3nccc(N5CCS(=O)(=O)CC5)c3CO4)CC2)C1 [Compound 9] | CDK7/cyclinH/MAT1 trimeric complex (Homo sapiens, UniProt P50613) | 2.69 |
| C=CC(=O)N1CC(N2CCC(c3cc4c(cc3Cl)OCc3c(N5CCOCC5)ccnc3N4)CC2)C1 [Compound 23] | CDK7/cyclinH/MAT1 trimeric complex (Homo sapiens, UniProt P50613) | 2.66 |
| C=CC(=O)N1CC(N2CCC(c3ccc4c(c3)Nc3nccc(N5CCOC6(CCOCC6)C5)c3CO4)CC2)C1 [Compound 47] | CDK7/cyclinH/MAT1 trimeric complex (Homo sapiens, UniProt P50613) | 2.78 |
| C=CC(=O)N1CCC(c2ccc3c(c2)OCc2c(N4CCOCC4)ccnc2N3)C1 (centres unmarked) [Compound 55] | CDK7/cyclinH/MAT1 trimeric complex (Homo sapiens, UniProt P50613) | 0.39 |
| C=CC(=O)N1CC(c2ccc(-c3ccc4c(c3)Nc3nccc(N5CCOCC5)c3CO4)cn2)C1 [Compound 43] | CDK7/cyclinH/MAT1 trimeric complex (Homo sapiens, UniProt P50613) | 3.04 |
| C=CC(=O)N1CC(N2CCC(c3ccc4c(c3)OCc3c(-c5cnn(C)c5)ccnc3N4)CC2)C1 [Compound 52] | CDK7/cyclinH/MAT1 trimeric complex (Homo sapiens, UniProt P50613) | 3.00 |
| C=CC(=O)N1CC(N2[C@@H]3CC[C@H]2C[C@H](c2ccc4c(c2)Nc2nccc(N5CCOCC5)c2CO4)C3)C1 [Compound 54] | CDK7/cyclinH/MAT1 trimeric complex (Homo sapiens, UniProt P50613) | 3.00 |
| C=CC(=O)N1CC(N2CCC(c3ccc4c(c3)Nc3ncc(Cl)c(N5CCOCC5)c3CO4)CC2)C1 [Compound 13] | CDK7/cyclinH/MAT1 trimeric complex (Homo sapiens, UniProt P50613) | 3.02 |
| C=CC(=O)N1CC(N2CCC(c3ccc4c(c3)Nc3nccc(-c5cnn(C)c5)c3CO4)CC2)C1 [Compound 39] | CDK7/cyclinH/MAT1 trimeric complex (Homo sapiens, UniProt P50613) | 2.90 |
| C=CC(=O)N1CCC(c2ccc(-c3ccc4c(c3)Nc3nccc(N5CCOCC5)c3CO4)cn2)C1 (centres unmarked) [Compound 25] | CDK7/cyclinH/MAT1 trimeric complex (Homo sapiens, UniProt P50613) | 2.40 |
| C=CC(=O)N1CC(C#Cc2ccc3c(c2)Nc2nccc(C4CCOCC4)c2CO3)C1 [Compound 33] | CDK7/cyclinH/MAT1 trimeric complex (Homo sapiens, UniProt P50613) | 3.02 |
| C=CC(=O)N1CC(N2CCC(c3ccc4c(c3)Nc3nccc(N5CCOCC5)c3C(C)O4)CC2)C1 (centres unmarked) [Compound 22] | CDK7/cyclinH/MAT1 trimeric complex (Homo sapiens, UniProt P50613) | 1.72 |
| C=CC(=O)N1CC(N2CCC(c3ccc4c(c3)Nc3nccc(N5C[C@H]6CC[C@@H](C5)O6)c3CO4)CC2)C1 [Compound 11] | CDK7/cyclinH/MAT1 trimeric complex (Homo sapiens, UniProt P50613) | 2.84 |
| C=CC(=O)N1CC[C@@H](N2CCC(c3ccc4c(c3)Nc3nccc(N5CCOCC5)c3CO4)CC2)C1 (single isomer, unassigned) [Compound 44] | CDK7/cyclinH/MAT1 trimeric complex (Homo sapiens, UniProt P50613) | 2.78 |

###

Here the recorded kinact is given for each entry.
Molecular target: CDK7/cyclinH/MAT1 trimeric complex (Homo sapiens, UniProt P50613)
Assay: In vitro CDK7 assay, potency of irreversible covalent inhibitors (kinact/KI), coupled PK/LDH ADP readout at 340 nm
Details: read-out: CDK7 (20 nM enz.) (kinact, s^−1), 20 nM enzyme
readout.name: kinact (s⁻¹)

| molecule | target.system | number |
| --- | --- | --- |
| CC#CC(=O)N1CC[C@@H](N2CC(c3cc(C)c4c(c3)Nc3nccc(C5CCOCC5)c3CO4)C2)C1 (single isomer, unassigned) | CDK7/cyclinH/MAT1 trimeric complex (Homo sapiens, UniProt P50613) | 3.52e-05 |
| Cc1nc(C2CCN([C@@H]3CCN(C(=O)/C=C/C(=O)O)C3)CC2)cc2c1OCc1c(-c3cnn(C)c3)ccnc1N2 (single isomer, unassigned) | CDK7/cyclinH/MAT1 trimeric complex (Homo sapiens, UniProt P50613) | 8.82e-05 |
| C=CC(=O)N1CC[C@@H](N2CC(c3cc(C)c4c(c3)Nc3nccc(N5CCOCC5)c3[C@H](C)O4)C2)C1 (single isomer, unassigned) | CDK7/cyclinH/MAT1 trimeric complex (Homo sapiens, UniProt P50613) | 6.83e-05 |
| C=CC(=O)N1CC(N2CCO[C@H](c3cc(C)c4c(c3)Nc3nccc(C5CCOCC5)c3CO4)CC2)C1 (single isomer, unassigned) | CDK7/cyclinH/MAT1 trimeric complex (Homo sapiens, UniProt P50613) | 6.39e-05 |
| CC#CC(=O)N1CCC(N2CC(c3cc4c(c(C#N)n3)O[C@@H](C)c3c(C5CCOCC5)ccnc3N4)C2)CC1 (single isomer, unassigned) | CDK7/cyclinH/MAT1 trimeric complex (Homo sapiens, UniProt P50613) | 3.26e-05 |
| C=CC(=O)N1CC[C@@H](N2CCC(c3cc4c(c(C)n3)OCc3c(N5CCOCC5)ccnc3N4)CC2)C1 (single isomer, unassigned) [Compound 282] | CDK7/cyclinH/MAT1 trimeric complex (Homo sapiens, UniProt P50613) | 5.01e-05 |

The origin of these recorded values is patent US20240254138A1.
